Tested on: Oral Cavity and Pharynx
Assay: Sensory qualities of compounds in syrup applied to base of tongue of volunteers
Type: in vivo, human
Settings: 5 mg/mL in cherry-flavored syrup, ~0.8 mL
Procedure: The DIPA compounds was 5 mg/mL in cherry-flavored syrup in a volume of 0.8 mL per dose. The sensory effect were recorded every 5 min for 1 hr. Tests were on four volunteers, with 3 to 5 trials per substance. […] The concentration of the DIPA compounds was 5 mg/mL in cherry-flavored syrup administered in a volume of 0.8 mL per dose. The sensory effect were recorded every 5 min for 1 hr.
MEASURED PROPERTY: Sensation

Record excerpt, results attached:
- COMPOUND: "CCCCCCCCP(=O)(C(C)CC)C(C)CC (stereo not drawn) [DAPA-2-8, 1-Di(sec-butyl)-phosphinoyl-octane]"
  RESULT: "cold"
- COMPOUND: "CCCCCCCCCP(=O)(C(C)C)C(C)C"
  RESULT: "cool"
- COMPOUND: "CCCCCCP(=O)(C(C)CC)C(C)CC (stereo not drawn) [DAPA-2-6, 1-Di(sec-butyl)-phosphinoyl-hexane]"
  RESULT: "icy cold"
- COMPOUND: "CCCCCCCP(=O)(C(C)CC)C(C)CC (stereo not drawn) [DAPA-2-7, 1-Di(sec-butyl)-phosphinoyl-heptane]"
  RESULT: "icy cold"

Look up Sensation with Oral Cavity and Pharynx for this compound: CCCCCCCCP(=O)(C(C)C)C(C)C cold

---

test system: acid-induced swallowing movements; assay: Suppression of acid-induced swallowing movements in the anesthetized rat; type: in vivo; details: suppression of acid-induced swallowing
MEASURED PROPERTY: Relative Potency
When you answer, write just the number.

Look up Relative Potency with acid-induced swallowing movements for this compound: CCCCCCCP(=O)(C(C)CC)C(C)CC (stereo not shown) [DAPA-2-7, 1-Di(sec-butyl)-phosphinoyl-heptane] 0.45

Look up Relative Potency with acid-induced swallowing movements for this compound: CCCCCCCCP(=O)(C(C)CC)C(C)CC (stereo not shown) [DAPA-2-8, 1-Di(sec-butyl)-phosphinoyl-octane] 0.16

Look up Relative Potency with acid-induced swallowing movements for this compound: CCCCCCCP(=O)(C(C)C)C(C)C 0.11

Look up Relative Potency with acid-induced swallowing movements for this compound: CCCCCCP(=O)(C(C)CC)C(C)CC (stereo not shown) [DAPA-2-6, 1-Di(sec-butyl)-phosphinoyl-hexane] 0.05

---

experiment: Water solubility of 1-dialkylphosphorylalkanes; assay type: physicochemical; conditions: water
MEASURED PROPERTY: solubility (mg/mL)
Dear colleague, please return just the value in mg/mL, with no unit written.

- MOLECULE: "CCCCCP(=O)(C(C)CC)C(C)CC (stereo not shown)"
  solubility [mg/mL]: 22

Here is the next item to consider.
Quick one: solubility of CCCCCC[P@@](=O)(C(C)C)[C@@H](C)CC ? 25

---

tested on: oropharynx and esophagus; experiment: Sensory events and cold discomfort of compounds on throat, chest and body; conditions: DIPA-1-9 up to 12 mg per unit
MEASURED PROPERTY: icy cold / pain in throat

- COMPOUND: "CCCCCCCP(=O)(C(C)CC)C(C)CC (stereo not shown) [DAPA-2-7, 1-Di(sec-butyl)-phosphinoyl-heptane]"
  RESULT: "icy cold"
- COMPOUND: "CCCCCCCP(=O)(C(C)C)C(C)C"
  RESULT: "icy cold"
- COMPOUND: "CCCCCCP(=O)(C(C)C)C(C)C"
  RESULT: "icy cold"
- COMPOUND: "CCCCCCP(=O)(C(C)CC)C(C)CC (stereo not shown) [DAPA-2-6, 1-Di(sec-butyl)-phosphinoyl-hexane]"
  RESULT: "icy cold"
